Tested on: Hs27 cells
Conditions: concentration reducing Hs27 viability by 30%, MTT, 24 h
Below, each of the molecules is paired with its reported CC30 in Hs27 Cells value.

Solved cases below.
O=C(CC1SC(=O)NC1=O)Oc1ccc(/C=N/NC(=O)c2ccncc2)cc1 (centres unmarked)
>995.98 mg/L
NC(=S)N/N=C/c1ccc(OC(=O)CC2SC(=O)NC2=O)c(Br)c1 (centres unmarked)
>1078.21 mg/L
COc1cc(/C=N/NC(=O)c2ccncc2)ccc1OC(=O)CC1SC(=O)NC1=O (centres unmarked)
>1071.05 mg/L
COc1cc(/C=N/NC(N)=S)ccc1OC(=O)/C=C1\SC(=O)NC1=O
>951.00 mg/L

## Input # input molecule: CCOc1cc(/C=N/NC(=O)c2ccncc2)ccc1OC(=O)CC1SC(=O)NC1=O (centres unmarked) ; wanted: its CC30 in Hs27 Cells
## Output 654.42 mg/L

Reference source for all entries: paper PMC9916616
